measurement-description: soluble fraction after stress (log2 fold change); higher = more stays soluble; pooled small domains, quantitative proteomics
condition-notes: stress: pH 4
Listing of recorded soluble fraction (log2) by entry.
measurement-kind: soluble fraction (log2)

{"input-sequence": "HMSVTYRLLITSSPGQAEVFLDGKRVGITPFSARLAAGWYQVRVSKEGYNLWEQHVQLREDQRLTATLT", "meas-value": 0.229}
{"input-sequence": "HMFSGVQLGQAISEAIKRKNVSQKEVADHFGVKQPSVSGWIKNGRIDKKHLDKLIDYFSDVVTPSHFGIE", "meas-value": 0.241}
{"input-sequence": "HMIHDSAESVVFPFGKYKGYTLAHVIREHPHYTYWIRDNADFSPLWREAVSLALQNRDIGHLNLPHVK", "meas-value": -0.606}
{"input-sequence": "HMDFFVLVGAYKTPDEAETIRAKIAFSGLDSSVSHGNDGRYRVRIGPFHSEGDARKAQSTLRANDIPGQII", "meas-value": 0.18}
{"input-sequence": "HMRPQYVDLFTKLSAEEAGAITSKLKELKVEYQLADNGSTIKVPQKDAAEIRLELANEGLPA", "meas-value": -0.283}
{"input-sequence": "HMGFSERLAQAMSHAGYTQGGLAKAVGMAQSSVNKLLNNANSSRKTVEIASVLGVRPEWLSTGEGDML", "meas-value": 0.188}
{"input-sequence": "HMGEPTLTIRVVSYNPQSGEMVVVARDPLSGRYALATLNVRTGAGQMIGPQGELLPIENFALGS", "meas-value": -0.692}
{"input-sequence": "HMGFSKGKRDLIRMIKLAIRELADDNGRAQIEDVITRLVQEGHSRDEIRLQIDMFLRQGEAMEPKQGIIKL", "meas-value": -0.891}

----------
measurement-description: soluble fraction after stress (log2 fold change); higher = more stays soluble; pooled small domains, quantitative proteomics
condition-notes: stress: pH 4
Listing of recorded soluble fraction (log2) by entry.

{"input-sequence": "HMTDLDVAVTMTVALEEAVNGATRRVRLPNGKELNVKIPAGVAAGQQIRLKGQGETAPGHRPGDVLITVNI", "soluble fraction (log2)": -0.626}
{"input-sequence": "HMTYSSESVRYRIKSLIDNETIDEILSDDKIVNILKSQGIDVARRTVAKYREAMGLASSIQRRREKKSA", "soluble fraction (log2)": -0.0241}
{"input-sequence": "HMKVSKNKIVKGMGFHHVALKAVDFDASFKFYTEGLGMKFYTSWGEGNGKIAMLDLGDGGILELFA", "soluble fraction (log2)": 0.22}
{"input-sequence": "HMEAEPRLLDLPPGTRAGRLDKVLAQLLPEHSRSRLQGWIERGGVLVNGKEASVRQVVGPGDQLTVWEEAA", "soluble fraction (log2)": 0.0341}
{"input-sequence": "HMFEPLTDREREVLQALADGLSDKEIAERLYISPATVRTHITAILGKLDANSRLQAVVVAARHNLVTL", "soluble fraction (log2)": -0.926}
{"input-sequence": "HMRQFEPVEGYNPYADKNELHGYEYWGAKFADSRSPEETAWIKQQIDDENEDRRFISEAGLA", "soluble fraction (log2)": -0.446}
{"input-sequence": "HMATIADILAEHKDKEGPLLPVLHDVQKMFGHVSEEAMREIAQALNLTRAEVYGVVSFYHDFRKEVE", "soluble fraction (log2)": -1.19}
{"input-sequence": "HMPFDWSAFDWKGWADEALAIIKTANQDQMNKWTEDNEKIIVQAETAAPDIYKTVGDEYDKKMESFN", "soluble fraction (log2)": 0.0448}

----------
measurement-description: soluble fraction after stress (log2 fold change); higher = more stays soluble; pooled small domains, quantitative proteomics
condition-notes: stress: pH 4
Values of soluble fraction (log2) greater than or equal to -0.2 map to yes; values below map to no.

{"input-sequence": "HMSENIQLQKEQLYQLIAQLPEQRQKIFRLHKIDNYSYQEISDFTGLSRKTIANHIYLAHQFILKKVKK", "assigned-class": "no"}
{"input-sequence": "HMLAGVDTLADRELEVFQMLGRGKSTKEIAQVLNLGESTVETYRARIKEKLQLRSAAELYLRAGQWVRDHG", "assigned-class": "no"}
{"input-sequence": "HMKSDVVFDITDGTVKAMLKFNRSDVTILNNDGKNYYLFTANGEFTFKYQDGSGEYYEKTVYVDWLEDE", "assigned-class": "no"}
{"input-sequence": "HMNMMESNLFAVYDNDDIVKTLRQGAMEIDSLIRLMGKSSAEVLEKLTTMELQGIITRSGNIIALNN", "assigned-class": "no"}
{"input-sequence": "HMAPLEPLTDRETEMLVRLANGASNKVMARESFVSENTIKFHLKNIYAKLGVTSRLQAIAAARNQGLI", "assigned-class": "yes"}
{"input-sequence": "HMNRTKQIYNELLFRLDQGVYPPESKFPSESQLADEFSVSKVTMNKIVSMLASSGRLSRGVRGAGTFVSSP", "assigned-class": "yes"}
{"input-sequence": "HMTQLEVDLFERLITISGVGPRLALAVLSGLEPPDLLRAIQDSDIVRLQGIPGVGKKTAERISLELKDKLS", "assigned-class": "no"}
{"input-sequence": "HMAMNLQETVLMQLRDLILRGTFEPGQRLSEQPLAERLKASRTPVRSALVTLEQEGLIEASETGKYLVRQ", "assigned-class": "no"}
{"input-sequence": "HMEVNLEPLIALLRKHRDLDLSGYSKSTLGRRITYFMGLNKISSIDELGRRLAEDDLLFQEFLDKLT", "assigned-class": "no"}
{"input-sequence": "HMTETEIVIGGKYRHYKGGEYELVSIVKHSETLEELVIYKSLSTGEMWARPKSLFVGLVDGQPRYTL", "assigned-class": "no"}
{"input-sequence": "HMSALAQDGDLVQLQGAGYKSHILRLKAGEVLQTHRGVIQHDAVIGQPWGARLQSHTGSPFYLFQPGLADL", "assigned-class": "yes"}
{"input-sequence": "HMTNTYEVIKNDIIFGVLPPLKKLKLLELKKKYITSVSTLREILSRLSGDGFVVSKEQKGFYVSAV", "assigned-class": "no"}
{"input-sequence": "HMAEKEYYYATDALNLRQGPGMEHTVKGEVVLGERVALLGLEGKWAKIQNAQGTTGYVFSAYLAPS", "assigned-class": "yes"}
{"input-sequence": "HMIKISDYLSEEDLNFIKEMEKIYPYFDFDSEGNLILTKSIDELKDKYGFDEAFVSRLDTVLNSR", "assigned-class": "no"}
{"input-sequence": "HMYDASELNKALEEAKKLDLNNYTEESSEALKNAISKAEEALLSKDKETINSALEELNKAMDSL", "assigned-class": "no"}
{"input-sequence": "HMISSRDAAVIGLVENIQRAQLNAIDESSGFKHLMETYNLESKEIALLVGKSRSYVSNSLRLSK", "assigned-class": "no"}
{"input-sequence": "HMTNEWRKILSNLNGKYQIVMELFYVDGFSTKEIARMLHITEVNVRSRMVRGRKQLEQILTVR", "assigned-class": "yes"}

----------
measurement-description: soluble fraction after stress (log2 fold change); higher = more stays soluble; pooled small domains, quantitative proteomics
condition-notes: stress: pH 4

{"input-sequence": "HMYYHQIIGLDVVDENGNTLGKIKEILSPGANDVWVVKRKQKNDLLLPVIDDVIKDVDLAAGKVHVELLEG", "soluble fraction (log2)": -1.38}
{"input-sequence": "HMVITQVSTTQTDTTFQYHKVKPKETLFSISRLYEVSIDEIKTINPALNSRELMAGELLKLPIK", "soluble fraction (log2)": -0.337}
{"input-sequence": "HMTGDIIKQERKKKNLTQIELAKKVGISRNALINYEAGTRIPPISVQLKLADVLGIDILDLK", "soluble fraction (log2)": -0.0221}
{"input-sequence": "HMSVLLDDLSPREREILQLVVEGHSSTKIAGMLGLASATVDTYRSRLMAKLHIDNLPDLVRFAIRHGLIS", "soluble fraction (log2)": -0.122}

----------
measurement-description: soluble fraction after stress (log2 fold change); higher = more stays soluble; pooled small domains, quantitative proteomics
condition-notes: stress: pH 4
Listing of recorded soluble fraction (log2) by entry.
measurement-kind: soluble fraction (log2)

{"input-sequence": "HMLSPAQSLLLRTAARRPDGRVIPPDTLRGGARVKVLTSLLQRGWIEPVDGGHVLTDAGYAAIG", "meas-value": "≥ 0.43"}
{"input-sequence": "HMIEYILDYLANRGVYAASQGEQQQMEDGIARYLQENGLEDGNTGAYYQKYVSNHLQQISASDLKAYFLN", "meas-value": -1.49}
{"input-sequence": "HMITSELALVKLVVKGANRVEALRVAETFRARALDVTLSSFVFELTGKPSKLDAFIGLMRSLGDTEILKR", "meas-value": -1.02}
{"input-sequence": "HMPERLTYVHPDGAEPMRADKALAAFLSGRISRSRLLGSFSAGKVMAGGKPVEKKLLLRAGDALEVELPEP", "meas-value": 0.0894}
{"input-sequence": "HMSLPQSKDAVITILRTLPQLDTRAPEVYKLLGPHALDIILEDPEQVAKKINHVGVATAKLWQQALLGFK", "meas-value": 0.198}
{"input-sequence": "HMEELTPLQKYVFDYESDISDEVDMRAIKGLENANDVYDYYANVRGWEGDPDLEDDLDNIYRQVKARFA", "meas-value": -1.2}
{"input-sequence": "HMVVGYRYVTNVANAVNFRQKPSASSTIITTIPYGTRIGYVEDANSEYARVKYDNMYGYVAKFYLSNYSPP", "meas-value": 0.276}
{"input-sequence": "HMAQPIPSGADIRAAREAAGMTLRRFAEYIAGPDFSTWSRYETGKPIRVKNISPEVWQRVRKFIAQNKG", "meas-value": 0.129}

The reported measurements were obtained from the domain aggregation screens of Martell et al. (2025).
